Every entry's value here was drawn from PubChem BioAssay.

tested on: Lefty1; experiment: Lefty1 protein binding to printed compounds – biochemical, small-molecule microarray, 635/667 nm fluorescence, primary screen (AID 1139); conditions: fluorescence 635/667, higher = more signal
Classify by measured composite z-score: class 1 if it is equal to or exceeds 0.4, class 0 if it is smaller.

[[record]]
compound = "COCCOC(=O)N1C(=O)[C@@]2(c3cc(C#Cc4ccc(OC)cc4)ccc31)[C@H](c1ccc(O)cc1)N1[C@H](c3ccccc3)[C@H](c3ccccc3)OC(=O)[C@H]1[C@@H]2C(=O)N1CCN(c2ncccn2)CC1"
group_label = "class 1"

[[record]]
compound = "CCCCCCCCCCC(O)C1C=CC2C(=O)N(c3ccccc3)C(=O)C2N1Nc1ccc([N+](=O)[O-])cc1 (centres undefined)"
group_label = "class 0"

[[record]]
compound = "O=C1OCC=C[C@H]2OC34C=CCN(CCN5CCOCC5)C(=O)[C@H]3N(CCCCCCO)C(=O)[C@@H]4[C@@H]12 (some centres undefined)"
group_label = "class 1"


query: // inclusive: composite z-score at least 0.4? input: Cc1cc(C)c(C(O)C2C=CC3C(=O)NC(=O)C3N2Nc2ccccn2)c(C)c1 (centres undefined)
result: class 0

###

// reported z-score per item
experiment: JC-1 mitochondrial signal, unstimulated HepG2 cells – cell-based, JC-1 fluorescence, 24 h, 100 nL compound, profiling panel (AID 1167); conditions: HepG2 mitochondrial potential, higher = more signal; further: test concentration not given here

Sample answers from the record:
[[record]]
compound = "C=CCC(OC(C)=O)[C@@H]1[C@@H](N(Cc2ccc(-c3cccc(C(F)(F)F)c3)o2)C(=O)Cc2ccc(OC)cc2)c2cc(OCCCO)ccc2N1C(=O)Cc1ccc(OC)cc1 (some centres undefined)"
recorded_result = 2.08

[[record]]
compound = "COC(=O)[C@@]1(Cc2ccc(F)cc2)[C@H]2c3cc(C(=O)N(C)C)n(Cc4ccccn4)c3C[C@H]2CN1C(=O)c1ccccc1"
recorded_result = -0.21

[[record]]
compound = "CC(C)C(CO)N1C(=O)[C@@H]2[C@H]3C(=O)OCC=C[C@H]3OC23C=CCN(c2ccc4ccccc4c2)C(=O)[C@@H]13 (some centres undefined)"
recorded_result = -0.124

[[record]]
compound = "C[N+](C)(C)CCCCNC(=O)[C@H]1C[C@H]2C(=O)N3CCC[C@H]3C(=O)N2[C@H]1c1ccc(O)cc1"
recorded_result = -1.1

[[record]]
compound = "COc1ccccc1CN1C(=O)c2ccccc2[C@](Cc2ccccc2I)(C(=O)NCc2ccccc2)[C@@H]1c1ccc(CO)cc1"
recorded_result = 0.37


Per the record, Cc1ccc(S[C@]2(C(=O)NCC(F)(F)F)CC(=O)N(C3Cc4ccccc4C3)[C@@H]2c2ccc(CO)cc2I)cc1 has z-score of 0.194

response.value for O=C1C[C@@](C(=O)O)(c2ccc([N+](=O)[O-])cc2)[C@@H](c2ccc(CO)cc2I)N1CC12CC3CC(CC(C3)C1)C2 (field: z-score) = -2.54

The compound listed as COCCOC(=O)N1C(=O)[C@@]2(c3cc(C#CCC(C(=O)OC)C(=O)OC)ccc31)[C@H](c1ccccc1OCCO)N1[C@H](c3ccccc3)[C@H](c3ccccc3)OC(=O)[C@H]1[C@@H]2C(=O)Nc1nc2ccccc2s1 has a reported z-score of -2.31

What the record says about C=CCOC(=O)[C@@H]1[C@H]2C(=O)O[C@H](c3ccccc3)[C@H](c3ccccc3)N2[C@H](c2ccc(OCCOC(=O)[C@H]3C[C@H]4C(=O)N[C@@H](CCCC[N+](C)(C)C)C(=O)N4[C@H]3c3cccc(OCCO)c3)cc2)[C@@]12C(=O)Nc1ccc(I)cc12 : z-score is -0.984

Notebook: O=S(=O)(NCCCO)c1ccc(Br)cc1 , z-score read as 0.76

// z-score value for [N-]=[N+]=NCc1ccccc1[C@@H]1OC(c2ccc(OCCCO)cc2)=N[C@]1(Cc1ccccc1N=[N+]=[N-])C(N)=O : -1.5

C=C(CCCC)C(=O)CC[C@H](OC(=O)c1ccccc1-c1ccccc1C(=O)O)c1ccc(CO)o1 has a reported z-score of -0.373

Memo: CCCC[C@H]1OB(O)C[C@H]2C1=C(COc1ccccc1)C[C@H]1C(=O)N(Cc3ccccc3)C(=O)[C@H]12 , reported z-score: 0.989

Reported z-score for COc1ccc([Si](C)(C)[C@H]2[C@H](CC(=O)N3Cc4ccccc4C[C@H]3CO)O[C@@]3(C(=O)N(Cc4cccc(I)c4)c4ccccc43)[C@@H]2C)cc1 was 1.33

Given item C=C[C@H](C)[C@H](O)c1ccc(OCCO)cc1 , the value recorded as its z-score is 0.221

O=C1OCC=C[C@H]2OC34C=CCN(Cc5ccccc5)C(=O)[C@H]3N(CCCO)C(=O)[C@@H]4[C@@H]12 (some centres undefined) has a reported z-score of 0.0708

The recorded z-score for CCCCC(=O)N(Cc1ccccc1F)[C@@H]1CC(C(=O)NCCO)=C[C@H](Oc2c(I)cc(CO)cc2OC)[C@H]1O is 0.197

compound CCCCN1CC=CC23O[C@@H]4C=CCCOC(=O)C4[C@H]2C(=O)N(CCCO)[C@@H]3C1=O (some centres undefined) , z-score observed: -0.798

For this compound ( O=c1cccc(-c2ccc3ccccc3c2)o1 ), measured z-score is -1.31

###

experiment: JC-1 mitochondrial signal, unstimulated myeloma cells – cell-based, JC-1 fluorescence, RPMI8226, 24 h, 100 nL compound, profiling panel (AID 1169); settings: JC-1 mitochondrial potential fluorescence, higher = more signal; further: test concentration not given here
Measured z-score by item
Respond with the number and no other words.

[[record]]
compound = "COc1ccc([Si](C)(C)[C@H]2[C@H](CC(=O)N3CCC[C@H]3CO)O[C@@]3(C(=O)N(Cc4cccc(N5CCC5=O)c4)c4ccccc43)[C@@H]2C)cc1"
readout_type = "z-score"
recorded_result = -1.14


The recorded z-score for entry CCCC[C@H]1OB(O)C[C@H]2C1=C(COc1ccccc1)C[C@H]1C(=O)N(Cc3ccccc3)C(=O)[C@H]12 equals -0.163

For record COCCOC(=O)N1C(=O)[C@@]2(c3cc(C#CCC(C(=O)OC)C(=O)OC)ccc31)[C@H](c1ccc(OCCO)cc1)N1[C@H](c3ccccc3)[C@H](c3ccccc3)OC(=O)[C@H]1[C@@H]2C(=O)NC[C@H](O)c1ccccc1 the listed z-score is -0.749

# compound CC(C)N1C(=O)c2ccccc2[C@](C)(C(=O)NC2CC2)[C@@H]1c1ccc(CO)cc1 ; its z-score = 0.747

Kindly note the recorded z-score for O=C(CS)NCCCCCNC(=O)[C@H]1C[C@H]2C(=O)N[C@@H](Cc3ccccc3)C(=O)N2[C@H]1c1cccc(OCCO)c1 , which is -0.736

Quick note, z-score for C=C(COC)/C(=C/C[C@H](OC(C)=O)c1ccccc1OCCO)c1cnc2ccccc2c1 landed at -0.439

Reported z-score for CN(C)CCCCCCNC(=O)[C@@H]1C[C@@H]2C(=O)NCC(=O)N2[C@@H]1c1cccc(OCCO)c1 was -0.12

Lab book: z-score of O=C1O[C@@H](c2ccccc2)[C@@H](c2ccccc2)N2[C@@H](c3ccccc3OCCO)[C@]3(C(=O)Nc4ccc(C#CC5(O)CCCCCC5)cc43)[C@@H](C(=O)NC[C@H](O)c3ccccc3)[C@H]12 noted as -0.935

###

biological target: Albumin (Bos taurus); test: compounds binding labelled BSA control protein – biochemical, small-molecule microarray, Alexa647 label, 635/667 nm fluorescence, artefact control for SMM control protein annotation, profiling panel (AID 1118); conditions: BSA-A647 binding, fluorescence 635 nm, higher = more signal;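 further: score merges 667 nm emission intensity and signal-to-noise per printed compound spot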
Decision: composite z-score >= 0.8 yields rule met, all other cases yield rule not met.

[[record]]
compound = "COC(=O)[C@@]1(Cc2ccccc2)[C@H]2c3cc(C(=O)N(C)C)n(Cc4ccccc4)c3C[C@H]2CN1C(=O)c1ccccc1"
group_label = "rule not met"

[[record]]
compound = "O=C1C[C@@](C(=O)O)(c2ccc([N+](=O)[O-])cc2)[C@@H](c2ccc(CO)cc2I)N1C1CCCCC1"
group_label = "rule met"

[[record]]
compound = "O=P(NCC1(CC2(c3ccccc3)CO2)CC1)(c1ccccc1)c1ccccc1 (stereo unspecified)"
group_label = "rule not met"

[[record]]
compound = "Cc1cccc(/C=C/C=O)c1"
group_label = "rule met"

[[record]]
compound = "CC[C@@H]1C=C(C(=O)O)[C@H](c2ccc(C(C)C)cc2)N1S(=O)(=O)c1ccc(C)cc1"
group_label = "rule met"


As a next step, examine the compound that follows.
query: Does the compound O=C1OCC=C[C@H]2OC34C=CCN(CCN5CCOCC5)C(=O)[C@H]3N(CCCCCCO)C(=O)[C@@H]4[C@@H]12 (stereo partly specified) have recorded composite z-score that is 0.8 or more?
result: rule not met

###

test: forskolin-driven CRE-LacZ activity in PC12 – cell-based, CRE-LacZ reporter, forskolin-stimulated, primary screen (AID 1146); conditions: luminescence, 4.5 h, higher = more signal, called active from +8 up or from −8 down;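 further: PC12 cells with 6xCRE LacZ reporter stimulated by forskolin 10 µM; beta-galactosidase reporter signal reflecting CREB driven transcription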
Each record's z-score is compared with low bracket = under -0.3, middle bracket = from -0.3 up to 0.2, high bracket = 0.2 and over to give its class.

As a guide, the following entries are already answered.
[[record]]
compound = "C=CC[C@@]1(C(N)=O)N=C(c2ccc(OCCCO)cc2)O[C@@H]1c1ccccc1N=[N+]=[N-]"
group_label = "low bracket"

[[record]]
compound = "COCCOC(=O)N1C(=O)[C@@]2(c3cc(C#CC4=CCCCC4)ccc31)[C@H](C(=O)N1CCN(c3ncccn3)CC1)[C@H]1C(=O)O[C@H](c3ccccc3)[C@H](c3ccccc3)N1[C@@H]2c1ccc(OCCO)cc1"
group_label = "middle bracket"

[[record]]
compound = "COC(=O)[C@@]1(Cc2ccc(F)cc2)[C@H]2c3cc(C(=O)N(C)C)n(CCc4c[nH]c5ccc(OC)cc45)c3C[C@H]2CN1C(=O)c1ccccc1"
group_label = "high bracket"

[[record]]
compound = "C=CCOC(=O)[C@@H]1[C@H]2C(=O)O[C@H](c3ccccc3)[C@H](c3ccccc3)N2[C@H](c2ccc(OCCOC(=O)[C@H]3C[C@H]4C(=O)N[C@@H](CC(C)C)C(=O)N4[C@H]3c3cccc(OCCO)c3)cc2)[C@@]12C(=O)Nc1ccc(I)cc12"
group_label = "middle bracket"

[[record]]
compound = "NC(=O)[C@]1(Cc2ccccc2)N=C(c2ccc(OCCCO)cc2)O[C@@H]1c1ccccc1"
group_label = "high bracket"


query: Lab note: which band did CCCC[C@@H]1C[C@H]1[C@@H](NC(=O)c1ccccc1)c1ccccc1 land in?
result: high bracket

query: Exercise: read the entry O=C(NCc1ccccc1)[C@@H]1c2ccccc2C(=O)N(C2CCCCC2)[C@H]1c1ccc(CO)cc1 and state which class it falls under.
result: middle bracket

query: // bin(item) where item = CCCCCCC#C[Si](O[C@H](c1ccccc1)c1cn([C@H](C)c2ccccc2)nn1)(C(C)C)C(C)C
result: middle bracket

query: Please indicate the class for C=CCN1Cc2ccccc2C[C@@]2(COC(c3ccc(OCCCO)cc3)=N2)C1=O based on its z-score.
result: low bracket

query: Please let me know in which category the item COc1ccc(C#Cc2ccc3c(c2)[C@]2(C(=O)N3)[C@H](C(=O)N3CCc4cc(OC)c(OC)cc4C3)[C@H]3C(=O)O[C@H](c4ccccc4)[C@H](c4ccccc4)N3[C@@H]2c2ccc(OCCO)cc2)cc1 belongs.
result: middle bracket

query: Looking at C=C(/C(=C/C[C@@H](OC(C)=O)c1ccc(CO)o1)c1cnc2ccccc2c1)C(C)C , which class would you pick?
result: low bracket

query: Using the reported z-score, which band applies to CC(=O)NCCCC[C@@H]1NC(=O)[C@@H]2C[C@H](C(=O)NCc3ccc(F)cc3)[C@H](c3ccc(O)cc3)N2C1=O ?
result: middle bracket

query: Sort C[N+](C)(C)CCCCNC(=O)[C@H]1C[C@H]2C(=O)N3CCC[C@H]3C(=O)N2[C@H]1c1ccc(O)cc1 into one of the categories.
result: low bracket

query: Textbook exercise: identify the category of the compound given here, O=C(NCC(O)CO)[C@@]1(Cc2ccccc2)N=C(c2ccc(OCCCO)cc2)O[C@H]1c1ccccc1 (some centres undefined) , according to its measured value.
result: high bracket
